measurement_target: STING (Homo sapiens, UniProt Q86WV6)
Sequence (Q86WV6 whole entry): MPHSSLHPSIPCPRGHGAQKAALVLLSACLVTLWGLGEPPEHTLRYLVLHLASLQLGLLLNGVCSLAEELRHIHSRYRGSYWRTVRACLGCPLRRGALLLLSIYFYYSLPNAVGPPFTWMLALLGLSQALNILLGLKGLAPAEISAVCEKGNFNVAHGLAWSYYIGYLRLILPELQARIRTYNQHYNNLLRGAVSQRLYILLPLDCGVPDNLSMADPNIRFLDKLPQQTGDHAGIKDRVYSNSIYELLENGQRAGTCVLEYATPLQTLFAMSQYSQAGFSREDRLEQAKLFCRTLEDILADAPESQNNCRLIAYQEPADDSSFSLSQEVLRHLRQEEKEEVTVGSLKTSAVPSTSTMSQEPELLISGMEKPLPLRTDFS
protocol_text: STING antagonist activity, cell-based ISG54 promoter-reporter luciferase measurement of IRF activity (THP-1 dual / RAW-ISG cells)
details: Antagonist Activity of Exemplary Compounds; cell line and agonist not given; read-out: IC50
Experimental: THP-1 dual cells (InvivoGen) were cultured under 5% CO2 at 37° C. in RPMI containing 10% fetal bovine serum (FBS), 100 IU mL-1 penicillin and 100 μg mL-1 streptomycin. […] 50,000 cells seeded in a 96-well flat bottom white assay plate were treated with different concentrations (10 uM to 0.01 uM) of compounds for 1 h followed by STING induction with either 30 nM SB 11285 or 10 ug/mL 2′-3′ cGAMP. […] IC50 was calculated by plotting in Xlfit. […]
Listed next: entries and their corresponding IC50.

Worked examples, 2 molecules total:
* COC(=O)CCCCCCn1cnc2nc(Cl)nc(Cl)c21 [Compound 13] | 0.001 to 1 µM
* Cc1nc2nc(Cl)nc(S(=O)(=O)C(C)C)c2n1CCCCCCCCCCCCCCCC(=O)OCC(C)C [Compound 159] | 1 to 5 µM

Short answer for Cc1nc2nc(Cl)nc(Cl)c2n1CCCCCCCCCCCCCCCC(=O)OCCO [Compound 84] : IC50 was 1 to 5 µM

Just so you know, measured IC50 for COC(=O)CCCCCCCCCCCCCCCn1cnc2nc(N)nc(Cl)c21 [Compound 5] came out at 5 to 10 µM

Form field IC50, entry COC(=O)CCCCCCCCCCCCCCCn1cnc2nc(Cl)nc(S(C)(=O)=O)c21 [Compound 39] : > 20 µM

---

measurement_target: STING (Homo sapiens, UniProt Q86WV6)
protocol_text: STING antagonist activity, cell-based ISG54 promoter-reporter luciferase measurement of IRF activity (THP-1 dual / RAW-ISG cells)
details: Antagonist Activity of Exemplary Compounds; cell line and agonist not given; read-out: IC50
measurement_label: IC50

• CC(=O)NCCCCCCCCCCCCCCCCn1c(C)nc2nc(Cl)nc(Cl)c21 [Compound 166] = 0.001 to 1 µM
• CCCCCCCCC(C(=O)OCC)n1cnc2c(Cl)nc(Cl)nc21 (centres unmarked) [Compound 18] = 1 to 5 µM
• CCCCCCCCCCCCCCC(C(=O)OCc1ccc(OC)cc1)n1cnc2c(Cl)nc(Cl)nc21 (centres unmarked) [Compound 15] = > 20 µM
• COC(=O)CCCCCCCCCCCCCCCn1ccc2nc(Cl)nc(Cl)c21 [Compound 4] = > 20 µM

For the next question, use this compound.
Measured on STING (Homo sapiens, UniProt Q86WV6), Cc1nc2nc(Cl)nc(S(=O)(=O)C(C)C)c2n1CCCCCCCCCCCCCCCC#N [Compound 164] has a documented IC50 of 0.001 to 1 µM

---

Here, each record is paired with measured IC50 data.
measurement_target: UniProt Q86WV6
protocol_text: STING antagonist activity, cell-based ISG54 promoter-reporter luciferase measurement of IRF activity (THP-1 dual / RAW-ISG cells)
details: Antagonist Activity of Exemplary Compounds; cell line and agonist not given; read-out: IC50

• COC(=O)CCCn1cnc2nc(Cl)nc(Cl)c21 [Compound 37] = 5 to 10 µM
• Cc1nc2nc(Cl)nc(Cl)c2n1CCCCCCCCCCCCCCCCN1CCOCC1 [Compound 105] = 0.001 to 1 µM
• Cc1nc2nc(Cl)nc(Cl)c2n1CCCCCCCCCCCCCCCC(=O)OC[C@@H](O)CO [Compound 107] = 1 to 5 µM
• COC(=O)CCCCCCCCCCCCCCCn1cnc2nc(F)nc(Cl)c21 [Compound 38] = 1 to 5 µM
• Cc1nc2nc(Cl)nc(Cl)c2n1CCCCCCCCCCCCCCCC(=O)N1CCNCC1 [Compound 87] = 10 to 20 µM

Query Cc1nc2nc(Cl)nc(S(=O)(=O)CCO)c2n1CCCCCCCCCCCCCCCC(=O)OC(C)C [Compound 146] yields IC50 of 0.001 to 1 µM

Form: compound = COC(=O)CCCCCCCCCCCCCCCn1c(C)nc2nc(Cl)nc(Cl)c21 [Compound 29] ; IC50 = 0.001 to 1 µM

# compound COc1ccc(Cn2cnc3c(NCCCCCC(=O)O)nc(Cl)nc32)cc1 [Compound 22] ; its IC50 = > 20 µM

Entry Cc1nc2nc(Cl)nc(Cl)c2n1CCCCCCO [Compound 62] , IC50 reported as 1 to 5 µM
